Ref: patent US10821100B2

Tested Target: Recombinant human mPGES-1 (Homo sapiens)
Construct: made in house; host or cells: CHO cells (crude microsomal fractions)
Sequence (O14684 whole entry): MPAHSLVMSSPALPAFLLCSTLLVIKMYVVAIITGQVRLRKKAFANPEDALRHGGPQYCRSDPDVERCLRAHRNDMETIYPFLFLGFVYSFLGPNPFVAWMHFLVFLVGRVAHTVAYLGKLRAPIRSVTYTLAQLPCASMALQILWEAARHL
Measurement Notes: In-vitro screening of mPGES-1 inhibitors (inhibition of PGE2 formation from PGH2, HTRF detection)
Assay type: biochemical
Applied Conditions: 1 μM test compound; mPGES-1 enzyme, crude microsomal fractions; read-out: Percentage inhibition at 1 μM
Endpoint Name: inhibition at 1 µM (%)

[[record]]
compound = "COc1cc(-n2nc(-c3c(F)cccc3Cl)[nH]c2=O)ccc1C#Cc1ccc(C(F)(F)F)cc1Cl [Example-61]"
unit_symbol = "%"
recorded_measurement = 92.4

[[record]]
compound = "COc1cc(-n2nc(-c3c(F)cccc3Cl)[nH]c2=O)ccc1C(=O)Nc1nc2ccc(F)cc2s1 [Example-45]"
unit_symbol = "%"
recorded_measurement = 81.7

[[record]]
compound = "COc1ccc(-n2nc(-c3c(Cl)ccc(CNC(=O)C(C)(C)C)c3F)[nH]c2=O)cc1 [Example-86]"
unit_symbol = "%"
recorded_measurement = 79.9

